stated_conditions: 288.15 K; 101 kPa; Liquid; Pycnometric method
± gives the expanded uncertainty stated by the source.
# mass density values compiled below

Ask: Quick check: mass density of C=C(C)C(=O)OCc1ccccc1 [benzyl methacrylate] ?
Result: 1041.2 ± 2.4 kg/m3

Ask: // query: C=C(C)C(=O)OCCO [2-hydroxyethyl 2-methyl-2-propenoate]
Result: 1074.7 ± 2.4 kg/m3

Ask: // query: `C=C(C)C(=O)O`
Result: 1018.3 ± 2.1 kg/m3

Ask: // query: `CCCCO`
Result: 812.3 ± 1.7 kg/m3

---

# mass density values compiled below
stated_conditions: 318.15 K; 101 kPa; Liquid; Pycnometric method
# output: bare number, implied unit kg/m3

Examples with answers:
C=C(C)C(=O)OCc1ccccc1 [benzyl methacrylate] :: 1017
C=C(C)C(=O)OCCO [2-hydroxyethyl 2-methyl-2-propenoate] :: 1048.6
CCCCO :: 790.5

Ask: Quick check: mass density of `C=C(C)C(=O)O` ?
Result: 989.2

Source of measurements: the NIST ThermoML archive (doi:10.1021/je0601255)
